test-summary: Plasma protein binding in human assessed as unbound fraction
Type: ADME, cell-free
readout-kind: fraction unbound
Answer with a bare number; do not write a unit.

# input compound: O=C1CN(c2c(O)cc3c(c2F)CCN(CC2CC2)CC3)S(=O)(=O)N1 ; wanted: its fraction unbound 0.638

Could you do the same for CCN1CCc2cc(O)c(N3CC(=O)NS3(=O)=O)c(F)c2CC1 , please? 0.804

What do we get for CN1CCc2cc(O)c(N3CC(=O)NS3(=O)=O)c(F)c2CC1 ? 0.998

Ok, now CC(C)CCN[C@@H]1CCc2cc(O)c(N3CC(=O)NS3(=O)=O)c(F)c2C1 0.585
